Measured % Inhibition at 100 µM, IGF1R-Y-P, listed per entry for reference.
biological target: insulin-like growth factor-1 (IGF-1) (UniProt P05019 49-118); test: cell-based or functional assay
Sequence (P05019 49-118 limits assumed): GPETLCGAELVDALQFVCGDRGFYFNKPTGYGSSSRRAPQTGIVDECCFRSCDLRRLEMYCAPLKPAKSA
Positions of bridges follow the written chain, without caps; N, C: chain ends. Non-standard residues stand in square brackets, D forms with d. No end group written: not given here. d2Nal = N[C@H](Cc1ccc2ccccc2c1)C(=O)O; dAbu = CC[C@@H](N)C(=O)O

{"binder": "[dAbu]DGD (designed binder, linker N-C via 3‑aminomethyl‑5‑aminobenzamide; also: four loops joined to But-Calix calix[4]arene scaffold) [GFB-121]", "% Inhibition at 100 µM, IGF1R-Y-P (%)": 33.8}
{"binder": "GDFD (designed binder, linker N-C via 3‑aminomethyl‑5‑aminobenzamide; also: four loops on But-Calix calix[4]arene scaffold) [GFB-105]", "% Inhibition at 100 µM, IGF1R-Y-P (%)": 1.3}
{"binder": "GFB-134 (designed binder, also: 3 GDGY loops and 1 GDDY loop on But-Calix scaffold, linker to a chain's N/C-terminus via 3-aminomethyl-5-aminobenzamide) peptide 1: GDGY peptide 2: GDDY", "% Inhibition at 100 µM, IGF1R-Y-P (%)": 16.8}
{"binder": "GDGD (designed binder, linker N-C via 3‑aminomethyl‑5‑aminobenzamide; also: four loops on O3-Calix calix[4]arene scaffold) [GFB-104]", "% Inhibition at 100 µM, IGF1R-Y-P (%)": -28.4}
{"binder": "[d2Nal]DGD (designed binder, linker N-C via 3‑aminomethyl‑5‑aminobenzamide; also: four loops joined to But-Calix calix[4]arene scaffold) [GFB-118]", "% Inhibition at 100 µM, IGF1R-Y-P (%)": 1.5}
{"binder": "GDSD (designed binder, linker N-C via 3‑aminomethyl‑5‑aminobenzamide; also: four loops on But-Calix calix[4]arene scaffold) [GFB-113]", "% Inhibition at 100 µM, IGF1R-Y-P (%)": -18.9}
{"binder": "GFB-136 (designed binder, also: 3 GDDD loops and 1 GDGY loop on But-Calix scaffold, linker to a chain's N/C-terminus via 3-aminomethyl-5-aminobenzamide) peptide 1: GDDD peptide 2: GDGY", "% Inhibition at 100 µM, IGF1R-Y-P (%)": 40.6}
{"binder": "GKGF (designed binder, linker N-C via 3‑aminomethyl‑5‑aminobenzamide; also: four loops on But-Calix scaffold) [GFB-115]", "% Inhibition at 100 µM, IGF1R-Y-P (%)": -38.3}
{"binder": "GDDD (designed binder, linker N-C via 3‑aminomethyl‑5‑aminobenzamide; also: loops on DPM-2 scaffold) [GFB-129]", "% Inhibition at 100 µM, IGF1R-Y-P (%)": 3.4}
{"binder": "GDND (designed binder, linker N-C via 3‑aminomethyl‑5‑aminobenzamide; also: four loops on But-Calix scaffold) [GFB-117]", "% Inhibition at 100 µM, IGF1R-Y-P (%)": 4.9}
{"binder": "GFB-135 (designed binder, also: 3 GDGY loops and 1 GDDD loop on But-Calix scaffold, linker to a chain's N/C-terminus via 3-aminomethyl-5-aminobenzamide) peptide 1: GDGY peptide 2: GDDD", "% Inhibition at 100 µM, IGF1R-Y-P (%)": 16.2}
{"binder": "GDGY (designed binder, linker N-C via 3‑aminomethyl‑5‑aminobenzamide; also: loops on DPM-2 scaffold) [GFB-128]", "% Inhibition at 100 µM, IGF1R-Y-P (%)": -12}
{"binder": "ADGD (designed binder, linker N-C via 3‑aminomethyl‑5‑aminobenzamide; also: four loops on But-Calix calix[4]arene scaffold) [GFB-112]", "% Inhibition at 100 µM, IGF1R-Y-P (%)": 0.6}
{"binder": "PDGD (designed binder, linker N-C via 3‑aminomethyl‑5‑aminobenzamide; also: four loops on But-Calix scaffold) [GFB-119]", "% Inhibition at 100 µM, IGF1R-Y-P (%)": 16.7}
